# measured target: Thrombin, from Human Plasma, high activity (human, UniProt P00734 328-622)
# method: enzyme inhibition, pNA substrate
Bridges are numbered along the chain shown (N, C = ends). [ ]: non-standard residue; d: D form. Nle = CCCC[C@H](N)C(=O)O
Catalogue of binders with associated % inhibition at 100 µM
measurement label: % inhibition at 100 µM (%)

INSERT INTO results (binder, measurement_label, unit_label, value_measured) VALUES
  ('XCTASIPPQCY (HELM PEPTIDE1{[Nle].C.T.A.S.I.P.P.Q.C.Y.[dP].D}$PEPTIDE1,PEPTIDE1,2:R3-10:R3|PEPTIDE1,PEPTIDE1,1:R1-13:R2$$$V2.0; SMILES CCCC[C@@H]1NC(=O)[C@H](CC(=O)O)NC(=O)[C@H]2CCCN2C(=O)[C@H](Cc2ccc(O)cc2)NC(=O)[C@@H]2CSSC[C@H](NC1=O)C(=O)N[C@@H]([C@@H](C)O)C(=O)N[C@@H](C)C(=O)N[C@@H](CO)C(=O)N[C@@H]([C@@H](C)CC)C(=O)N1CCC[C@H]1C(=O)N1CCC[C@H]1C(=O)N[C@@H](CCC(N)=O)C(=O)N2, also called Ex. 168) [Example 168]', '% inhibition at 100 µM', '%', 0),
  ('XCTASIPPQCY (HELM PEPTIDE1{[Nle].C.T.A.S.I.P.P.Q.C.Y.[dP].F}$PEPTIDE1,PEPTIDE1,2:R3-10:R3|PEPTIDE1,PEPTIDE1,1:R1-13:R2$$$V2.0; SMILES CCCC[C@@H]1NC(=O)[C@H](Cc2ccccc2)NC(=O)[C@H]2CCCN2C(=O)[C@H](Cc2ccc(O)cc2)NC(=O)[C@@H]2CSSC[C@H](NC1=O)C(=O)N[C@@H]([C@@H](C)O)C(=O)N[C@@H](C)C(=O)N[C@@H](CO)C(=O)N[C@@H]([C@@H](C)CC)C(=O)N1CCC[C@H]1C(=O)N1CCC[C@H]1C(=O)N[C@@H](CCC(N)=O)C(=O)N2, also called Ex. 167) [Example 167]', '% inhibition at 100 µM', '%', 0),
  ('cyclo([Nle]CAASIPPQCY[dP]P) (disulfide 2-10, also called Ex. 86) [Example 86]', '% inhibition at 100 µM', '%', 10.7),
  ('XCTASIPPQCX (HELM PEPTIDE1{[Nle].C.T.A.S.I.P.P.Q.C.[Cha].[dP].P}$PEPTIDE1,PEPTIDE1,2:R3-10:R3|PEPTIDE1,PEPTIDE1,1:R1-13:R2$$$V2.0; SMILES CCCC[C@@H]1NC(=O)[C@@H]2CCCN2C(=O)[C@H]2CCCN2C(=O)[C@H](CC2CCCCC2)NC(=O)[C@@H]2CSSC[C@H](NC1=O)C(=O)N[C@@H]([C@@H](C)O)C(=O)N[C@@H](C)C(=O)N[C@@H](CO)C(=O)N[C@@H]([C@@H](C)CC)C(=O)N1CCC[C@H]1C(=O)N1CCC[C@H]1C(=O)N[C@@H](CCC(N)=O)C(=O)N2, also called Ex. 97) [Example 97]', '% inhibition at 100 µM', '%', 11.6),
  ('XCTASIPPQCQ (HELM PEPTIDE1{[Nle].C.T.A.S.I.P.P.Q.C.Q.[dP].P}$PEPTIDE1,PEPTIDE1,2:R3-10:R3|PEPTIDE1,PEPTIDE1,1:R1-13:R2$$$V2.0; SMILES CCCC[C@@H]1NC(=O)[C@@H]2CCCN2C(=O)[C@H]2CCCN2C(=O)[C@H](CCC(N)=O)NC(=O)[C@@H]2CSSC[C@H](NC1=O)C(=O)N[C@@H]([C@@H](C)O)C(=O)N[C@@H](C)C(=O)N[C@@H](CO)C(=O)N[C@@H]([C@@H](C)CC)C(=O)N1CCC[C@H]1C(=O)N1CCC[C@H]1C(=O)N[C@@H](CCC(N)=O)C(=O)N2, also called Ex. 91) [Example 91]', '% inhibition at 100 µM', '%', 13.5);

Ref: patent US20140213531A1
